Target: human muscarinic M1 receptor (Homo sapiens)
Sequence (P11229 1-460): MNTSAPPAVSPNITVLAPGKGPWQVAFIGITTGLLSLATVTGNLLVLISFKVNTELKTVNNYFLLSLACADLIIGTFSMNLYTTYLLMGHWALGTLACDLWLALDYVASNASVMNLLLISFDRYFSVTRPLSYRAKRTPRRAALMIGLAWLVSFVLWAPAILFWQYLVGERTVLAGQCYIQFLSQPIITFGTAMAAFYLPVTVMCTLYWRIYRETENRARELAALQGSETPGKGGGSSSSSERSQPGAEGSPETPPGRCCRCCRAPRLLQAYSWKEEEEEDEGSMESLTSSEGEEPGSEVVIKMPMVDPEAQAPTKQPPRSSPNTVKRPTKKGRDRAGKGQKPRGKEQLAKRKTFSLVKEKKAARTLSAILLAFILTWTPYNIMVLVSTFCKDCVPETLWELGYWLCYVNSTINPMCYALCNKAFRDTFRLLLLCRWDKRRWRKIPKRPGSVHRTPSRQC
Assay: Alphascreen Surefire phospho-ERK1/2 functional assay, M1
Format: cell-based
Conditions: CHO cells stably expressing human M1; agonist 5 min, 37° C.
recorded_metric: pEC50 M1

molecule: CCOC(=O)C1C2CN(C3CC4CCC(C3)N4C(=O)OCC)CC21 (single isomer, unassigned; isomer 2) [7-1 Isomer 2]
system_under_test: human muscarinic M1 receptor (Homo sapiens)
recorded_metric: pEC50 M1
value: 5.67

molecule: CCOC(=O)N1C2CCC1CC(N1CC3C(C1)C3C(=O)N(C)CC)C2 (single isomer, unassigned; isomer 2) [7-2 Isomer 2]
system_under_test: human muscarinic M1 receptor (Homo sapiens)
recorded_metric: pEC50 M1
value: 6.66

molecule: COC(=O)N1C2COCC1CC(N1CC3C(C1)C3C(=O)N(C)C(C)C)C2 (single isomer, unassigned; isomer 1) [10-5 Isomer 1]
system_under_test: human muscarinic M1 receptor (Homo sapiens)
recorded_metric: pEC50 M1
value: 6.30

molecule: CCOC(=O)N1C2CCC1CC(N1CC3C(C1)C3C(=O)N(CC)CC)C2 (single isomer, unassigned; isomer 1) [7-3 Isomer 1]
system_under_test: human muscarinic M1 receptor (Homo sapiens)
recorded_metric: pEC50 M1
value: 6.78

molecule: CCN(CC)C(=O)C1C2CN(C3CC4COCC(C3)N4C(=O)OC)CC21 (single isomer, unassigned; isomer 2) [10-3 Isomer 2]
system_under_test: human muscarinic M1 receptor (Homo sapiens)
recorded_metric: pEC50 M1
value: 5.75

molecule: COC(=O)N1C2COCC1CC(N1CC3C(C1)C3C(=O)N(C)C(C)C)C2 (single isomer, unassigned; isomer 2) [10-5 Isomer 2]
system_under_test: human muscarinic M1 receptor (Homo sapiens)
recorded_metric: pEC50 M1
value: 5.66
